// reported Exp. Log(RBA) per item
molecular target: estrogen receptor (Rattus norvegicus, UniProt P06211); construct: in rat uterine cytosol, which was obtained from ovariectomized uteri of Sprague-Dawley rats; from tissue; host or cells: uterine cytosol of ovariectomized Sprague-Dawley rats; assay: Competitive ER binding assay with [3H]E2 in rat uterine cytosol (NCTR); details: relative binding affinity vs 17-β-estradiol (RBA 100), rat uterine cytosol, 130 compound training set
Sequence (P06211 whole entry): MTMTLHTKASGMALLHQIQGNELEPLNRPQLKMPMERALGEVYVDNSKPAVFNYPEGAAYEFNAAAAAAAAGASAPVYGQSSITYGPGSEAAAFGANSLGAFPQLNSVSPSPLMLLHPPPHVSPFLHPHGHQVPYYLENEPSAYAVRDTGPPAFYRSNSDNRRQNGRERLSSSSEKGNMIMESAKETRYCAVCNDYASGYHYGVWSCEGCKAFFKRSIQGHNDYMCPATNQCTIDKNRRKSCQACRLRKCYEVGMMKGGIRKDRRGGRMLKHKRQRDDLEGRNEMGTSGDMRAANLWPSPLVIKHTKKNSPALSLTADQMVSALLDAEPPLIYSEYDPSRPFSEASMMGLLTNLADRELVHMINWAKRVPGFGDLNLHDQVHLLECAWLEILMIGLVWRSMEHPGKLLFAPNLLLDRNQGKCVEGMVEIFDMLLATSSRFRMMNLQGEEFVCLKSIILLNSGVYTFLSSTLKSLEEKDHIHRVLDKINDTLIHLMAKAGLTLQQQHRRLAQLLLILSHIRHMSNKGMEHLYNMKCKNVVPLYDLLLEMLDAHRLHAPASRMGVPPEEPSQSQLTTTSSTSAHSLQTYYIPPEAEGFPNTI
API note: the answer field is a bare number with no unit suffix.

Worked cases, Exp. Log(RBA) given:
CCCCCCCOc1ccc(O)cc1 : −2.88
CCC(c1ccc2cc(O)ccc2c1)C(C)(C)C(=O)O (stereo not shown) : −0.02
Oc1ccc(-c2ccc(Cl)cc2)cc1 : −2.18
Oc1c(Cl)cc(-c2cc(Cl)c(O)c(Cl)c2)cc1Cl : −3.25
O=c1c(O)c(-c2ccc(O)cc2O)oc2cc(O)cc(O)c12 : −3.35
CCC(c1ccc(O)cc1)C(CC)c1c(C)cc(O)cc1C (stereo not shown) : 1.11

Task item: Look up Exp. Log(RBA) for this compound: Cc1cc(O)ccc1Cl
Reply: −3.38

###

Recorded Exp. Log(RBA) by entry
Biological target: estrogen receptor (Rattus norvegicus)
Construct: in rat uterine cytosol, which was obtained from ovariectomized uteri of Sprague-Dawley rats; from tissue; host or cells: uterine cytosol of ovariectomized Sprague-Dawley rats
Experiment: Competitive ER binding assay with [3H]E2 in rat uterine cytosol (NCTR)
Text: The log relative binding activity (RBA) data for these 130 structurally diverse compounds was used to train the CoSCoSA models. The data was produced at NCTR using a competitive ER binding assay with radiolabeled estradiol ([^3H]E2) in rat uterine cytosol, which was obtained from ovariectomized uteri of Sprague-Dawley rats. […] For each of the 130 compounds, the ^13C 2D ^13C—^13C COSY NMR experiment was simulated using the ACD Labs CNMR version 5.0 2D predictor software. […]

Recorded results for 5 molecules are shown here.
O=C(C(=O)c1ccc(O)cc1O)c1ccc(O)cc1O [2,2′,4,4′-tetrahydroxybenzil] : −0.68
Oc1ccc([C@H]2COc3cc(O)ccc3C2)cc1 : −0.82
Oc1ccc(Cl)cc1Cc1cc(Cl)ccc1O : −2.45
CCC(C)(c1ccc(O)cc1)c1ccc(O)cc1 : −1.07
CCCOC(=O)c1ccc(O)cc1 [propyl-4-hydroxybenzoate] : −3.22

Task item: I would be grateful if you could share the reported Exp. Log(RBA) for C[C@H]1CCCC(=O)CCCCCc2cc(O)cc(O)c2C(=O)O1 .
Reply: 0.32

Task item: Suppose we examine the molecule C[C@]12CC[C@H](O)C[C@@H]1CC[C@@H]1[C@@H]2CC[C@]2(C)[C@@H](O)CC[C@@H]12 ; what Exp. Log(RBA) value has been reported?
Reply: −0.92

Task item: Dear colleague, I am looking for the recorded Exp. Log(RBA) of the following molecule: O=C(/C=C/c1ccc(O)cc1)c1ccc(O)cc1O [2′,4,4′-trihydroxychalcone]
Reply: −1.26

Task item: Fill in: Exp. Log(RBA) of CCCCCCCCCc1ccc(O)cc1 is ___
Reply: −1.53

###

Listed here are molecules together with their documented Exp. Log(RBA).
target: estrogen receptor (Rattus norvegicus); construct: in rat uterine cytosol, which was obtained from ovariectomized uteri of Sprague-Dawley rats; from tissue; host or cells: uterine cytosol of ovariectomized Sprague-Dawley rats; test: Competitive ER binding assay with [3H]E2 in rat uterine cytosol (NCTR); conditions: relative binding affinity vs 17-β-estradiol (RBA 100), rat uterine cytosol, 130 compound training set
Give your answer as a number; write no unit.

O=c1c(O)c(-c2ccc(O)c(O)c2)oc2cc(O)ccc12 : −2.35
CC(Cc1ccc(O)c(O)c1)C(C)Cc1ccc(O)c(O)c1 (stereo not drawn) [nordihydroguariareticacid] : −1.51
O=c1cc(-c2ccccc2)oc2ccc(O)cc12 [6-hydroxyflavone] : −3.41
O=c1cc(-c2ccc(O)cc2)oc2ccc(O)cc12 [4,6-dihydroxyflavone] : −0.82
O=C(c1ccccc1)c1ccc(O)cc1O : −2.61

Task item: Lab note: need Exp. Log(RBA) for O=c1c(O)c(-c2ccc(O)cc2)oc2ccc(O)cc12 [3,6,4′-trihydroxyflavone] on estrogen receptor (Rattus norvegicus), anyone have it?
Reply: −0.35

Task item: API: value(readout=Exp. Log(RBA), system=estrogen receptor (Rattus norvegicus)) for record O=C1CC(c2cccc(O)c2)Oc2ccccc21 (stereo not drawn)
Reply: −2.78

Task item: Please tell me: Exp. Log(RBA) of CC/C(=C(/CC)c1ccc(OC)cc1)c1ccc(OC)cc1 , system estrogen receptor (Rattus norvegicus)?
Reply: −1.25

Task item: Provide value of Exp. Log(RBA) for this record tested with estrogen receptor (Rattus norvegicus): Oc1ccc(-c2ccccc2)c(Cl)c1
Reply: −2.77
